Test system: MRSA MW2 (USA400)
Test: In vitro susceptibility, broth microdilution (MIC)
Assay type: cell-based, methicillin resistant S. aureus
Conditions: Staphylococcus aureus; MRSA MW2 (USA400); read-out: Antimicrobial activity (MIC) MSRA USA400
Property: MIC; scope: individual compounds
# include the unit after the value

The cases that follow already have their MIC on record.
# compound, MIC
data = [
    ("CC(C)c1nc2c(cc1-c1ccc(Cl)cc1)[nH]c1cc(Br)ccc12 [Compound 114]", "8 µg/mL"),
    ("CN1CCN(CCCCNC(=O)c2c(/C=C/c3ccc(Cl)cc3)[nH]c3cc(Br)ccc23)CC1 [Compound 44]", "32 µg/mL"),
    ("COC(=O)C(=O)c1c(/C=C/c2ccc(Cl)cc2)[nH]c2cc(Br)ccc12 [Compound 86]", "64 µg/mL"),
]

Please turn your attention to the following entry.
Request: Look at this compound and give its reported MIC. O=C(O)CCCC(=O)c1c(-c2cc3cc(Cl)ccc3[nH]2)[nH]c2cc(-c3cc4cc(Cl)ccc4[nH]3)ccc12 [Compound 108]
Response: 2 µg/mL

###

Target: MRSA Pyk (Staphylococcus aureus)
Sequence (Q6GG09 whole entry): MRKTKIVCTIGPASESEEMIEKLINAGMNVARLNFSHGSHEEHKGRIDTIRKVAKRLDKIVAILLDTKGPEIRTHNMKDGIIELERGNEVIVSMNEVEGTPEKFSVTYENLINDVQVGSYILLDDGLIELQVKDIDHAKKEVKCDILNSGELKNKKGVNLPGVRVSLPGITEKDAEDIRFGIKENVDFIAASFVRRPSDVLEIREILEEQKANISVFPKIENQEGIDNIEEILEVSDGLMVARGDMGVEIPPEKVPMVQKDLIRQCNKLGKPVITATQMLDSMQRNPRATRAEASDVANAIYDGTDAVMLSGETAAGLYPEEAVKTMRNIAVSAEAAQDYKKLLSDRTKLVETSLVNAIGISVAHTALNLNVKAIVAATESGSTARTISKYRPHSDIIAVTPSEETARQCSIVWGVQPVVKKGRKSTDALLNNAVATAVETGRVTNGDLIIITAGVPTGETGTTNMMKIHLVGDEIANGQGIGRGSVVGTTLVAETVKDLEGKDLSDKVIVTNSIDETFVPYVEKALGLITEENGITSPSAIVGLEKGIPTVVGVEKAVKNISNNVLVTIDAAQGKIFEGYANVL
Assay: MRSA pyruvate kinase (PK) activity, continuous LDH-coupled assay
Protocol: Genomic DNA of MRSA strain Sanger 252 extracted using DNeasy Tissue Kit™ (Qiagen™) was used as a template to generate the His-tagged MRSA PK. […] The sequence and the correct reading frame of all constructs were verified by sequencing. […] MRSA and human constructs in pET-28a(+) were used to express relevant recombinant PK proteins in E. coli BL-21 (DE3). […] Briefly, cells were grown to an absorbance of 0.4-0.5 at 600 nm in 2×YT medium, then induced with 0.1 mM IPTG for 3 h at 20° C. […]
value kind: IC50

Request: Return reported IC50; argument: CC(O)(c1c(/C=C/c2ccc(Cl)cc2)[nH]c2cc(Br)ccc12)C(F)(F)F (stereo not shown)
Response: < 100 nM

Request: Requested read-out: IC50. Entry: "CC(C)(C)NCCNC(=O)COc1cc2[nH]c(-c3cc4ccc(Br)cc4[nH]3)cc2cc1Cl"
Response: < 100 nM

Request: Given the entry "O=C(NCCN1CCOCC1)c1c(/C=C/c2ccc(Cl)cc2)[nH]c2cc(Br)ccc12" , report its measured IC50.
Response: > 1000 nM

###

Test: Mammalian cytotoxicity, CellTiter 96 AQueous One (MTS)
Format: cell-based
Conditions: human, HeLa 229 cells, positive control
Protocol: The cytotoxic activities of compounds were determined for HeLa cells 229 (ATCC:CCL-2-.1) in microtiter cultures by measuring dehydrogenase activity using CellTiter 96® AQueous One Solution Cell Proliferation Assay™ (Promega™, Madison, Wis., USA), according to the manufacturer's protocol. Freshly split cells were seeded into microtiter wells (2×10^4/well) and grown for 24 hours. […] Production of formazan was determined at 490 nm on Benchmark Plus™ microplate spectrophotometer (Bio-Rad™). […]
value kind: CC50 at 24 h

Request: Which CC50 at 24 h is reported for this compound? "COc1cc(O)c(CC=C(C)C)c(O)c1C(=O)/C=C/c1ccc(O)cc1"
Response: ~9 µg/mL

###

Test system: MRSA MW2 (USA400)
Test: In vitro susceptibility, broth microdilution (MIC)
Format: cell-based, methicillin resistant S. aureus
Settings: Staphylococcus aureus; MRSA MW2 (USA400); read-out: Antimicrobial activity (MIC) MSRA USA400
Form field: MIC (one value per entry).

# compound structure string, MIC
records = [
    ("O=C(O)CCNC(=O)c1c(-c2cc3cc(Cl)ccc3[nH]2)[nH]c2cc(Br)ccc12", "32 µg/mL"),
    ("O=C(CO)Nc1c(/C=C/c2ccc(Cl)cc2)[nH]c2cc(Br)ccc12", "64 µg/mL"),
    ("CC(=O)Nc1c(/C=C/c2ccc(Cl)cc2)[nH]c2cc(Br)ccc12", "> 64 µg/mL"),
    ("CN(C)CCNC(=O)CCCC(=O)c1c(-c2cc3cc(Cl)ccc3[nH]2)[nH]c2cc(Br)ccc12", "4 µg/mL"),
    ("Oc1cc(/C=C/c2cc3ccc(Br)cc3[nH]2)ccc1Cl", "2 µg/mL"),
]

Request: Which MIC reading was recorded for the molecule "CC(=O)Nc1c(CCc2ccc(Cl)cc2)[nH]c2cc(Br)ccc12" ?
Response: > 64 µg/mL

Request: I'd like to know its MIC. The molecule in question is "CN(C)CCOc1cc(/C=C/c2cc3ccc(Br)cc3[nH]2)ccc1Cl"
Response: 4 µg/mL

Request: What does the record list as MIC for "O=S(=O)(Nc1nc2cc(Br)ccc2s1)c1ccc(Cl)cc1" ?
Response: > 64 µg/mL

Request: Requested read-out: MIC. Entry: "CN1CCN(CCOC(=O)c2c(/C=C/c3ccc(Cl)cc3)[nH]c3cc(Br)ccc23)CC1"
Response: 4 µg/mL
